System: SNB-19
EXPERIMENT: NCI tumour cell line growth inhibition, 48 h
Calls of active or inactive are those of the source. Cut-off read from the data, not from the text of the source: active = GI50 up to about 1.1 µM and inactive = higher.
Answer with one of the outcomes given here: t for active, f for inactive

molecule="CCCCCCCC/C=C/CCCCCCCC(=O)N(O)C1CC(n2cc(C)c(=O)[nH]c2=O)OC1CO (stereo unspecified)" assigned_category=f
molecule=O=[N+]([O-])C(=C(\Cl)NCCO)/C(Cl)=C(/Cl)Br assigned_category=f
molecule=O=[N+]([O-])/C=C/c1cn(CCCCCn2cc(/C=C/[N+](=O)[O-])c3ccccc32)c2ccccc12 assigned_category=f
molecule="C[C@]12CC(c3ccccc3O1)C(C(N)=O)C(=O)N2 (stereo partly specified)" assigned_category=f
molecule=CN(NC(=O)c1ccc(Cl)cc1)C1=NCCCCN1 assigned_category=f

So what was the verdict on CC(C)C(Br)C(=O)NCC(=O)O (stereo unspecified) in this test?
f

So what was the verdict on `COc1ccc2c(NCCCCCCNc3c4ccccc4nc4cc(OC)ccc34)c3ccccc3nc2c1` in this test?
t

So what was the verdict on Cc1cc(C(O)CCCc2ccccc2)cc(C)c1O (stereo unspecified) in this test?
f

So what was the verdict on CC1(c2ccc(F)cc2)C2C(=O)NC(=O)C1C(=O)NC2=O (stereo unspecified) in this test?
f

So what was the verdict on CC(C)c1cccc(C(C)C)c1NC(=O)C(=O)C1CCC2=C(Sc3ccccc3N2)C1=O (stereo unspecified) in this test?
f

So what was the verdict on CCOP(=O)(OCC)C1(O)CC(n2cc(C)c(=O)[nH]c2=O)OC1CO (stereo unspecified) in this test?
f

So what was the verdict on `O=C(/C=C/c1cccs1)c1ccc(C(=O)/C=C/c2cccs2)cc1` in this test?
f

So what was the verdict on COCCOCOC(CCCCO)c1cc(C)c(O[Si](C)(C)C(C)(C)C)c(C)c1 (stereo unspecified) in this test?
f

So what was the verdict on `COc1ccc(Nc2[nH]c(C(C)=O)c(N)c2C(=S)Nc2ccccc2)cc1` in this test?
f

So what was the verdict on `COc1ccccc1/N=N/c1c(-c2ccccc2)nn(C(=O)CC(=O)Nc2ccccc2Cl)c1-c1ccccc1` in this test?
f

So what was the verdict on CC(C)C1=CC23CCC4C(C)(C(=O)O)CCCC4(C)C2CC1C1C(=O)N(CCCCCCN2C(=O)C4C5CC6C7(C)CCCC(C)(C(=O)O)C7CCC6(C=C5C(C)C)C4C2=O)C(=O)C13 (stereo unspecified) in this test?
f

So what was the verdict on CN(Cc1cnc2nc(N)nc(N)c2n1)c1ccc(C(=O)NC(CCC(=O)O)C(=O)O)cc1 (stereo unspecified) in this test?
t

So what was the verdict on `Cc1c(C(=O)/C=C/c2ccco2)[n+]([O-])c2ccccc2[n+]1[O-]` in this test?
f

So what was the verdict on `Cn1nnc2c(C(N)=S)ncn2c1=O` in this test?
f

So what was the verdict on `COc1ccc(NC2=CC(=O)C(=O)c3ccccc32)nn1` in this test?
f

So what was the verdict on `N#CC1(C#N)C(C#N)(C#N)C12CCCCCC2` in this test?
f

====

Test system: SF-295
EXPERIMENT: NCI tumour cell line growth inhibition, 48 h
The source made the active and inactive calls. Cut-off read from the data, not from the text of the source: active = GI50 up to about 1.1 µM and inactive = higher.
# maps each entry to its GI50

compound=Oc1ccccc1-c1n[nH]c(-c2ccccc2O)n1 result="2.52 µM (inactive)"

Which GI50 reading was recorded for the compound `O=C(O)CSc1ccc2nc3ccccc3c(O)c2c1` ?
> 100 µM (inactive)

Which GI50 reading was recorded for the compound CC1CC(C)C(O)C(C2CC(CC(=O)NC3CCCCC3)CC(=O)O2)C1 (stereo unspecified) ?
> 100 µM (inactive)

Which GI50 reading was recorded for the compound `CCOC(=O)Cn1c(=O)c2nc(SC)sc2n(CC)c1=S` ?
> 100 µM (inactive)

Which GI50 reading was recorded for the compound `CC(=O)OCCOCCN1CCN(C2=C(Cl)C(=O)c3c(O)ccc(O)c3C2=O)CC1` ?
1.93 µM (inactive)

Which GI50 reading was recorded for the compound `CO[C@@]12C[C@@H](C)C3=CCC(C)=C3CC1=C(C)C(=O)O2` ?
> 100 µM (inactive)

Which GI50 reading was recorded for the compound `NC(=O)c1cc2ccc(O)cc2o/c1=N/NC(=O)c1ccccc1` ?
> 100 µM (inactive)

Which GI50 reading was recorded for the compound CC1(C)C(OC(=O)c2ccccc2)C[C@]23CCC[C@](C)(C[C@@H](O)C12)C3 (stereo partly specified) ?
13.9 µM (inactive)

Which GI50 reading was recorded for the compound `CC(=O)/C(=C/N1CCNC1=S)C(=O)Nc1ccccc1C` ?
> 100 µM (inactive)

Which GI50 reading was recorded for the compound `CCOC1=C/C(=N\Nc2ccc([N+](=O)[O-])cc2)CCC1` ?
13.1 µM (inactive)

Which GI50 reading was recorded for the compound O=C(O)c1ccccc1C(=O)OCC1CCCN2CCCCC12 (stereo unspecified) ?
> 100 µM (inactive)
